MEASUREMENT NOTES: NCI Yeast Anticancer Drug Screen. Data for the sgs1 mgt1 strain (AID 161);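 note: 0% = growth of cultures given vehicle only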
PROTOCOL CONDITIONS: S. cerevisiae sgs1 mgt1 strain, at 50.0 µM, active compounds read high
About 79,000 compounds went through this panel and 15% of them were active in at least one assay; those are over-represented in the sample as a whole.
ASSAY METRIC: growth inhibition (%)
# number only, unit % dropped from output

Lookup: Indicate the recorded growth inhibition value for this compound: CC1OC(OC23C(=O)CC(C)(O)CC2(O)C=CC2=C3C(=O)c3ccc(C4CC(OC5CCC(OC6CC(O)C(O)C(C)O6)C(C)O5)C(O)C(C)O4)c(O)c3C2=O)CCC1O (stereo not given)
Found: 5.75

Lookup: Indicate the recorded growth inhibition value for this compound: C/C(Cc1cccc2ccccc12)=N/NC(N)=O
Found: -19.1

Lookup: Indicate the recorded growth inhibition value for this compound: CC(C)(C)c1ccc(OCCCCl)c(CCl)c1
Found: 10.1

Lookup: Indicate the recorded growth inhibition value for this compound: COc1ccc(OC)c2c1ccc1c(C)c3ccccc3c(C)c12
Found: 14.2

Kindly review the next compound as well.
Lookup: Indicate the recorded growth inhibition value for this compound: Clc1ccc2ccc3ccc(Cl)nc3c2n1
Found: 26.4

###

MEASUREMENT NOTES: NCI Yeast Anticancer Drug Screen. Data for the rad50 strain (AID 155);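 note: 0% = growth of vehicle-only cultures of the same strain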
PROTOCOL CONDITIONS: S. cerevisiae rad50 strain growth inhibition; at 50.0 µM; active compounds read high
This is part of a sample that, as a whole, favours compounds with a hit. Of some 79,000 tested, about 15% had one in any assay.
ASSAY METRIC: growth inhibition (%)
# number only, unit % dropped from output

Example cases with answers are listed next.
Lookup: Indicate the recorded growth inhibition value for this compound: CCOc1ccccc1/C=C1\NC(=O)NC1=O
Found: -38.6

Lookup: Indicate the recorded growth inhibition value for this compound: Fc1ccccc1-c1ccccc1
Found: -26.4

Lookup: Indicate the recorded growth inhibition value for this compound: Cc1ccc(N2N=S=CC2=O)cc1
Found: 40.7

Lookup: Indicate the recorded growth inhibition value for this compound: OC1c2c(ccc3ccccc23)CCC1N1CCCCC1 (stereo unspecified)
Found: 12.6

Lookup: Indicate the recorded growth inhibition value for this compound: c1ccc(COC2C3COC(O3)C(OCc3ccccc3)C2OCc2ccccc2)cc1 (stereo unspecified)
Found: 11.7

Kindly review the next compound as well.
Lookup: Indicate the recorded growth inhibition value for this compound: COc1cc(C2c3cc4c(cc3[C@@H](Nc3ccc(C#N)cc3)C3COC(=O)[C@H]23)OCO4)cc(OC)c1O (stereo partly specified)
Found: 87.5

###

// reported growth inhibition for each item listed
MEASUREMENT NOTES: NCI Yeast Anticancer Drug Screen. Data for the cln2 rad14 strain (AID 165);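 note: 0% = growth equal to vehicle treated cultures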
PROTOCOL CONDITIONS: S. cerevisiae cln2 rad14 strain, at 50.0 µM, active compounds read high
About 79,000 compounds went through this panel and 15% of them were active in at least one assay; those are over-represented in the sample as a whole. Calls of active or inactive are those of the source. Rule as the data show it: active = growth inhibition above about 70%; inactive = the rest.

Example cases with answers are listed next.
Lookup: Indicate the recorded growth inhibition value for this compound: COC(=O)C1(O)CCC(C)CC1 (stereo unspecified)
Found: -26.3% (inactive)

Lookup: Indicate the recorded growth inhibition value for this compound: CC(=O)OCC(OC(C)=O)C(OC(C)=O)C(OC(C)=O)C1OC(=O)C(OC(C)=O)C1OC(C)=O (stereo unspecified)
Found: 2.25% (inactive)

Lookup: Indicate the recorded growth inhibition value for this compound: CC(=O)Nc1c(Nc2ccc3c(=O)[nH]ccc3c2C)cc[nH]c1=O
Found: 14.5% (inactive)

Lookup: Indicate the recorded growth inhibition value for this compound: CN(C)/N=N/c1nc2c(c(=O)n(C)c(=O)n2C)n1CC(O)CO (stereo unspecified)
Found: -2.85% (inactive)

Lookup: Indicate the recorded growth inhibition value for this compound: CC(=O)OCC(OC(C)=O)C(OC(C)=O)C(OC(C)=O)C(OC(C)=O)c1cnn(-c2ccccc2)n1 (stereo unspecified)
Found: 32.1% (inactive)

Kindly review the next compound as well.
Lookup: Indicate the recorded growth inhibition value for this compound: CCOC(=O)COc1ccc(Cc2ccc3c(c2)OCO3)cc1C
Found: -6.05% (inactive)

These data points were gathered from PubChem BioAssay (NCI).
